# Tested on: Cortical neurone
# TEST_NAME: Neuroprotective activity against kainate-induced cell death in mouse primary cortical neurons by cell counting method
# Assay type: functional, cell-based
Active and inactive are the calls of the source. How the calls were made is not given here.
PARAMETER: Activity

Use these answered entries as a reference point.
{"columns": ["CPD_SMILES", "EXPERIMENTAL_SYSTEM", "Activity"],
 "data": [
  ["CC(C)(C)c1ccc(-c2cn(CCn3c(=N)sc4cc(OC(F)(F)F)ccc43)nn2)cc1", "Cortical neurone", "inactive"],
  ["N=c1sc2cc(OC(F)(F)F)ccc2n1CCn1cc(-c2ccc(Br)cc2)nn1", "Cortical neurone", "inactive"],
  ["N=c1sc2cc(OC(F)(F)F)ccc2n1CCn1cc(CCc2ccccc2)nn1", "Cortical neurone", "inactive"],
  ["CC(C)CCc1cn(CCn2c(=N)sc3cc(OC(F)(F)F)ccc32)nn1", "Cortical neurone", "inactive"],
  ["COC(=O)c1ccc(-c2cn(CCn3c(=N)sc4cc(OC(F)(F)F)ccc43)nn2)cc1", "Cortical neurone", "inactive"],
  ["N=c1sc2cc(OC(F)(F)F)ccc2n1CCn1cc(-c2ccccc2C(F)(F)F)nn1", "Cortical neurone", "inactive"]
]}

Record Activity for all entries; do not skip any.
1. N=c1sc2cc(OC(F)(F)F)ccc2n1CCn1cc(-c2ccccc2)nn1
2. N=c1sc2cc(OC(F)(F)F)ccc2n1CCn1cc(-c2ccsc2)nn1
3. N=c1sc2cc(OC(F)(F)F)ccc2n1CCn1cc(-c2cc(F)cc(F)c2)nn1
4. N#Cc1ccc(-c2cn(CCn3c(=N)sc4cc(OC(F)(F)F)ccc43)nn2)cc1

Output line:
1: inactive; 2: inactive; 3: inactive; 4: inactive
